experiment: Human HepG2 cell viability assay in 384 well format; format: toxicity, cell-based; set-up: dose 125 nL, time 70.5 hour; concentration not given beside the values; conditions: HepG2 cells, read-out: Inhibition
ENDPOINT: cytotoxicity at 70.5 h
Please format your answer as a value with the unit trailing.

Below: 2 molecules and their reported cytotoxicity at 70.5 h.
CN(C)C(=O)[C@H]1C[C@@H]2CN(S(=O)(=O)c3ccccc3)C[C@H]1O2	-6.1%
COc1ccc(S(=O)(=O)NCc2cccnc2N(C)C)cc1	-5%

Attention now turns to another entry.
Report cytotoxicity at 70.5 h for `CNc1nccc(-c2cn(C)nc2C)n1` please.
1.94%

---

assay: Human HepG2 cell viability assay in 384 well format; format: toxicity, cell-based; parameters: dose 125 nL, time 70.5 hour; concentration not given beside the values; details: HepG2 cells, read-out: Inhibition
ENDPOINT: cytotoxicity at 70.5 h (%)
One number for each entry, in %.

O=C(c1cnc(O)cc1O)N1CCCC(CCc2ccccc2F)C1 (centres undefined)	-11.4

Would you mind giving cytotoxicity at 70.5 h for every molecule in the list below?
1. CCC(CC(=O)Nc1ccc2c(c1)CC(=O)N2)c1ccccc1 (centres undefined)
2. c1csc(N2[C@H](Cn3cncn3)C[C@@H]3CNCC[C@@H]32)n1

1: -6.03; 2: 10.2

// lookup cytotoxicity at 70.5 h for CC(C)CNC(=O)CSC1CCc2ccccc2NC1=O (centres undefined)
-15.8

---

assay: Human HepG2 cell viability assay in 384 well format; format: toxicity, cell-based; set-up: dose 125 nL, time 70.5 hour; concentration not given beside the values; conditions: HepG2 cells, read-out: Inhibition
ENDPOINT: cytotoxicity at 70.5 h (%)
Answers are plain numbers, in %.

Please go through the list and note cytotoxicity at 70.5 h for each molecule.
1. CC(C)Nc1ncccc1C(=O)NCc1ccnn1C
2. O=C(O)C1(Cc2cc(-c3ccccc3F)no2)CCOCC1
3. COc1ncc(C2CC(=O)NCc3nc4ccccn4c32)cn1 (configuration not stated)
4. CN(C)CC(=O)NC1CC(=O)N(CCc2ccccc2)C1 (configuration not stated)
5. NCCc1cn(Cc2ccccn2)c2ccccc12
6. COc1cccc(OCCc2nc3c(cc2C(N)=O)CCC3)c1
7. CC[C@H](Nc1nc(C(C)C)nc2c1cnn2C)c1ccccc1

1. 6.47
2. -10.6
3. -13.5
4. -4.7
5. -5.82
6. 1.85
7. -8.04

Parameters: items (list). Returns: cytotoxicity at 70.5 h for each item.
1. Cn1cc(CC(=O)N2CCC(Nc3cccnn3)CC2)c2ccccc21
2. Cc1ccc(-c2ccnc(NC(C)c3n[nH]c(C)n3)n2)c(C)n1 (configuration not stated)
3. COc1nc(C)ccc1CNc1cc(N2CCCC2CO)ncn1 (configuration not stated)
4. CC(=O)N(Cc1ncc(C)o1)C1CCN(Cc2nccn2C)C1 (configuration not stated)
5. OCC(CO)N1CCC(c2nnc(Cn3ccnc3)n2C2CC2)CC1
6. Cc1ccc(C2CSCCN2C(=O)c2cccs2)o1 (configuration not stated)
7. COCCNc1nc2c(c(NCCc3cccs3)n1)CCNCC2

[-4.98, -9.42, 7.33, 2.28, 12.4, 19.9, -2.67]

Below are 2 molecules. Give each one its cytotoxicity at 70.5 h.
1. CN(C)C(=O)CN1CCC2(COCc3cnc(-c4cccnc4)nc32)C1 (configuration not stated)
2. OCc1cc2ccccc2nc1NCC1CCN(CC(F)(F)F)C1 (configuration not stated)

1. -5.78
2. 27.3

Below are 4 molecules. Give each one its cytotoxicity at 70.5 h.
1. CN(C)S(=O)(=O)N1CC[C@]2(O)CCN(c3cc(C#N)ccn3)C[C@@H]2C1
2. Fc1ccccc1Oc1nccnc1C1CCCN(C2CCOCC2)C1 (configuration not stated)
3. O=C(O)C1(Cc2ccc(-c3cccs3)cc2)CCNC1 (configuration not stated)
4. CN1CCCC1CNC(=O)c1nnn(-c2ccc(F)cc2)c1C1CC1 (configuration not stated)

1: -7.65; 2: -9; 3: -2.56; 4: 22.3

Cited source: ChEMBL document CHEMBL3507680
